Reference source: paper PMC6669961

- measured on: human O-GlcNAcase (hOGA) (Homo sapiens)
- Construct: made in house; host or cells: Escherichia coli BL21(DE3)
- Sequence (O60502 whole entry): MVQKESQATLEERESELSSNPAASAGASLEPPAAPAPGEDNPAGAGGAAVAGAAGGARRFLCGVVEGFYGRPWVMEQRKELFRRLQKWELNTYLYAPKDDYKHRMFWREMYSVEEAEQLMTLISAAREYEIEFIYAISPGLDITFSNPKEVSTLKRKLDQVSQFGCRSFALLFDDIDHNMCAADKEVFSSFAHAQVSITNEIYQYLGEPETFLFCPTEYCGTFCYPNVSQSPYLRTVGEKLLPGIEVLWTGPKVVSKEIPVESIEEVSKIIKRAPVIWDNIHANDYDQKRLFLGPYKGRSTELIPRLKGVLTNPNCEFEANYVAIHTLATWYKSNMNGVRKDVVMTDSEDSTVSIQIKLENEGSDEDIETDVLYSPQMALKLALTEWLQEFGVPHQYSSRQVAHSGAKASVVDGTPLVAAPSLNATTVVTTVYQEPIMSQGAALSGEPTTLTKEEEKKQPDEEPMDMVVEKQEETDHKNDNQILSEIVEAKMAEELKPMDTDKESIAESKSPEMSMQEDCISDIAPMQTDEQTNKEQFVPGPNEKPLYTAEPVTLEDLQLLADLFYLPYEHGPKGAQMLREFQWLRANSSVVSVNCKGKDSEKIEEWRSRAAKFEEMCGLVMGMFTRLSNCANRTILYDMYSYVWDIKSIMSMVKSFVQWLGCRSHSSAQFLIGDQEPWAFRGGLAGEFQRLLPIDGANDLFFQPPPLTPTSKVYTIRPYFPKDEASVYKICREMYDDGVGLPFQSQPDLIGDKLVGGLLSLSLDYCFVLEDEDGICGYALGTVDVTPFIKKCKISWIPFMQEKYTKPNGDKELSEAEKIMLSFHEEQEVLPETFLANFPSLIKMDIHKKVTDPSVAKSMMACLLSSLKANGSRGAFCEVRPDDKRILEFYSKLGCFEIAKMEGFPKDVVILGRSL
- experiment: Enzyme inhibitory activity test against hOGA (4-MU-GlcNAc substrate, end-point fluorescence; Dixon plots for Ki)
- Format: biochemical
- reported conditions: Dixon plots; 4-MU-GlcNAc 40, 20, 10 μM; pH 6.5
reported property: Ki

q: Which measured Ki value corresponds to O=C(CS[C@@H]1O[C@H](CO)[C@@H](O)[C@H](O)[C@H]1NC(=O)c1ccc(F)cc1)NCCCN1C(=O)c2cccc3c(N4CCCCC4)ccc(c23)C1=O [Compound 16b] ?
a: > 100 µM

q: Field request: Ki | item: CCNC(=O)N[C@@H]1[C@@H](O)[C@H](O)[C@@H](CO)O[C@H]1SCC(=O)NCCCN1C(=O)c2cccc3c(Br)ccc(c23)C1=O [Compound 17d]
a: 7.11 µM

q: Return reported Ki; argument: CC(=O)N[C@@H]1[C@@H](O)[C@H](O)[C@@H](CO)O[C@H]1SCC(=O)NCCCN1C(=O)c2cccc3c(N(C)C)ccc(c23)C1=O [Compound 10c]
a: 9.72 µM

q: Bench note: what Ki did O=C(CS[C@@H]1O[C@H](CO)[C@@H](O)[C@H](O)[C@H]1NC(=O)c1ccccc1)NCCCN1C(=O)c2cccc3c(N4CCCCC4)ccc(c23)C1=O [Compound 16a] show?
a: > 100 µM

q: I'd like to know its Ki. The compound in question is O=C(CS[C@@H]1O[C@H](CO)[C@@H](O)[C@H](O)[C@H]1NC(=O)c1ccc(F)cc1)NCCCN1C(=O)c2cccc3c(Br)ccc(c23)C1=O [Compound 16k]
a: > 100 µM

q: Looking for the measured Ki of O=C(CS[C@@H]1O[C@H](CO)[C@@H](O)[C@H](O)[C@H]1NC(=O)OCc1ccccc1)NCCCN1C(=O)c2cccc3c(N4CCCCC4)ccc(c23)C1=O [Compound 16c] , can you help?
a: > 100 µM

q: Would you mind telling me what Ki value was observed for O=C(CS[C@@H]1O[C@H](CO)[C@@H](O)[C@H](O)[C@H]1NC(=O)c1ccccc1)NCCCN1C(=O)c2cccc3c(Br)ccc(c23)C1=O [Compound 16j] ?
a: > 100 µM
